- ASSAY_SYSTEM: UniProt Q8NHM5
- Sequence (Q8NHM5 whole entry): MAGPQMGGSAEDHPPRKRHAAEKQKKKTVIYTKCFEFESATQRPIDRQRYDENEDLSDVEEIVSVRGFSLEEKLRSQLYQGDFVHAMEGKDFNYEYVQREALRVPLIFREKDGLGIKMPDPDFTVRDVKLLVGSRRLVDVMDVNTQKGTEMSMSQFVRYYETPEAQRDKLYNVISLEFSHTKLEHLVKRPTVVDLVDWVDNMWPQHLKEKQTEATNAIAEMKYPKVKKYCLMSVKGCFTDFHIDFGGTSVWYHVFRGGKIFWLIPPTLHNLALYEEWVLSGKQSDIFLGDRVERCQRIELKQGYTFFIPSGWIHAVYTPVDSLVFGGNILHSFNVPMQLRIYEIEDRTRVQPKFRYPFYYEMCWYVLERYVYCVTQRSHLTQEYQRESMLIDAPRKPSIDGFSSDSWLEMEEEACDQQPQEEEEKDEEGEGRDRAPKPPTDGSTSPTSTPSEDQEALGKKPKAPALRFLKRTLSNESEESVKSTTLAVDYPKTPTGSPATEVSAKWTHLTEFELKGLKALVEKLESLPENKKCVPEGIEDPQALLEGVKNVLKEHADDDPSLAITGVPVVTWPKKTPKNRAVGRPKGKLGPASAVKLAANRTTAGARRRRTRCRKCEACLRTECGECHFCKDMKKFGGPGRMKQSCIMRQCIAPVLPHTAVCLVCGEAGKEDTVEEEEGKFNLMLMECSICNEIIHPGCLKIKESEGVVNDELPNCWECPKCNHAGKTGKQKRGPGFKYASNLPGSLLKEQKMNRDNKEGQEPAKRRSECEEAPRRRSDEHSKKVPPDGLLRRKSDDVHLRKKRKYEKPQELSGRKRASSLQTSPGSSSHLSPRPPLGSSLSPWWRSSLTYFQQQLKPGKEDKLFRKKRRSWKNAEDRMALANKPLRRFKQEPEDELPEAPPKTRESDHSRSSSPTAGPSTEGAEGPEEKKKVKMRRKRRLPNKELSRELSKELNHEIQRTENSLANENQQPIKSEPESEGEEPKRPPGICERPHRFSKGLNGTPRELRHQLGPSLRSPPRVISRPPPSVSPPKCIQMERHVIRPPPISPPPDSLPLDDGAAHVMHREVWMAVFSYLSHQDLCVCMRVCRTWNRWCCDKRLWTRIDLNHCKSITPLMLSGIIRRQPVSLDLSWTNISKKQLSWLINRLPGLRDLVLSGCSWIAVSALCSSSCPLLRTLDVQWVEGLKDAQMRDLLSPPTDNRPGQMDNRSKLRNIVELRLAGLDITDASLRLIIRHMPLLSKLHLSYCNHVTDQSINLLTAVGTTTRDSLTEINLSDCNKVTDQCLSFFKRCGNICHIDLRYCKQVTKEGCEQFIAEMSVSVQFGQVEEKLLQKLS
pIC50: −log10 of the molar value.
ATTRIBUTE_MEASURED: pIC50

C[C@H](c1ccccc1)N1CC[C@@H](CNCc2cc(C(=O)O)ccn2)C1=O ... > 6.60

With those in mind, consider the next compound.
Fill in the blank: the reported pIC50 of C[C@H](c1ccccc1)N1CCC[C@@H](CNCc2cc(C(=O)O)ccn2)C1=O is ____.
> 6.60

###

- ASSAY_SYSTEM: Lysine-specific demethylase 4C (Homo sapiens)
- Sequence (Q9H3R0 whole entry): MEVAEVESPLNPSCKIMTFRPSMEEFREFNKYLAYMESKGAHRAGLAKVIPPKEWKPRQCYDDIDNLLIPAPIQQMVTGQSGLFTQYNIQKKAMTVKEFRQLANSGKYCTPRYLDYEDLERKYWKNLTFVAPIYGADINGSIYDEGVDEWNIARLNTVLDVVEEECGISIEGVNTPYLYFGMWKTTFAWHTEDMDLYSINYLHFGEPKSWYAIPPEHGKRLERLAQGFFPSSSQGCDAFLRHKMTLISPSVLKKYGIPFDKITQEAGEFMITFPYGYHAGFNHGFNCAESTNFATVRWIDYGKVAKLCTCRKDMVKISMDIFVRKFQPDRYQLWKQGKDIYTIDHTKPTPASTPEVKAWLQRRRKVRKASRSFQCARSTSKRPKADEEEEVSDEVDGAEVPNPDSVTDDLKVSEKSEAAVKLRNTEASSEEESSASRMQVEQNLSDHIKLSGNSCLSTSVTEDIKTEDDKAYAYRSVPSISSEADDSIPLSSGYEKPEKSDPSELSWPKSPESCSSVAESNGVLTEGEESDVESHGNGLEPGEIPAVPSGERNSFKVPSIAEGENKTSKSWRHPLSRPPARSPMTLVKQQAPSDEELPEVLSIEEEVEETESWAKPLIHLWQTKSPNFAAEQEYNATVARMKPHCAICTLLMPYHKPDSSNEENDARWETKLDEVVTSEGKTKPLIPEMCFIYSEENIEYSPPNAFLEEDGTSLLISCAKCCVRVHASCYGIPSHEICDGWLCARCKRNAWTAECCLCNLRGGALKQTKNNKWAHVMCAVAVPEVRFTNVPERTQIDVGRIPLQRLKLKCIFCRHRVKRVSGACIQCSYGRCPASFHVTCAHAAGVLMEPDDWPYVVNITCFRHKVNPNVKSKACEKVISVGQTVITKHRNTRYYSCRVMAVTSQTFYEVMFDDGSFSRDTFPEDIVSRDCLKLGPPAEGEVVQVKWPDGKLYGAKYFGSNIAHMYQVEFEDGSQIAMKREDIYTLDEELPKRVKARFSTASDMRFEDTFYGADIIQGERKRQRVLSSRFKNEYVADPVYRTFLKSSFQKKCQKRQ
ATTRIBUTE_MEASURED: IC50

Cc1cn2c(n1)CCN(Cc1cc(C(=O)O)ccn1)CC2 ... < 250 nM

With those in mind, consider the next compound.
Fill in the blank: the reported IC50 of COc1ccc([C@@H](C)N2CCC[C@@H](CNCc3cc(C(=O)O)ccn3)C2=O)cc1 is ____.
< 250 nM
